For each record, write down the corresponding Activity.
- Test system: Schistosoma mansoni
- experiment.summary: Antischistosomal activity against Schistosoma mansoni assessed as shcistomes paralysis relative to Praziquantel
- Type: functional

Example results:
compound: Nc1ccc(C(=O)N2CC(=O)N3CCc4ccccc4C3C2)cc1 (stereo unspecified)
Activity: 14.3%
//
compound: O=C(C1CCCCC1)N1CC(=O)N2CCc3ccc([N+](=O)[O-])cc3C2C1 (stereo unspecified)
Activity: <0.3%
//
compound: Nc1ccc2c(c1)C1CN(C(=O)C3CCCCC3)CC(=O)N1CC2 (stereo unspecified)
Activity: 10%
//
compound: O=C(C1CCC(O)CC1)N1CC(=O)N2CCc3ccccc3C2C1 (stereo unspecified)
Activity: 1.3%

For every record below, what is its Activity?
1. CC(=O)Nc1ccc2c(c1)C1CN(C(=O)C3CCCCC3)CC(=O)N1CC2 (stereo unspecified)
2. Nc1cccc(C(=O)N2CC(=O)N3CCc4ccccc4C3C2)c1 (stereo unspecified)

1: <0.3%; 2: 14.3%

---

For each record, write down the corresponding MLC.
- System: Schistosoma mansoni
- experiment.summary: Antischistosomal activity against Schistosoma mansoni assessed as 100% killing of schistosomes
- Assay type: functional
Answers are plain numbers, in µM.

Example results:
molecule: Nc1ccc2c(c1)C1CN(C(=O)C3CCCCC3)CC(=O)N1CC2 (configuration not stated)
measured.on: Schistosoma mansoni
MLC [µM]: 28
//
molecule: O=C(C1CCCCC1)N1CC(=O)N2CCc3ccccc3C2C1 (configuration not stated) [PRAZIQUANTEL]
measured.on: Schistosoma mansoni
MLC [µM]: 3
//
molecule: Nc1ccc(C(=O)N2CC(=O)N3CCc4ccccc4C3C2)cc1 (configuration not stated)
measured.on: Schistosoma mansoni
MLC [µM]: 18

For every record below, what is its MLC?
1. O=C(C1CCC(O)CC1)N1CC(=O)N2CCc3ccccc3C2C1 (configuration not stated)
2. Nc1cccc(C(=O)N2CC(=O)N3CCc4ccccc4C3C2)c1 (configuration not stated)

1: 200; 2: 12
